These entries and their values trace back to patent US20160354300A1.

experiment: Visual cloudiness of surfactant formulation with added agent after 20:1 dilution with water
Assay type: physicochemical
Parameters: key: Samples that appeared cloudy (turbid) within less than a day were noted as cloudy (“Yes”); Samples that did not appear cloudy (turbid) within less than a day were noted as not cloudy (“No”)
test settings: agent at 4%; 0.5 g formula, 10 ml deionized water
readout label: Added at 4%: cloudy at 20:1 dilution

C=C(C)[C@H]1CC=C(C)CC1 = No
CCC(=O)OC1CC2CC1C1CC=CC21 (stereo not drawn) = No
C=CC(C)(CCC=C(C)C)OC(=O)C(C)C (stereo not drawn) [Linalyl Iso Butyrate] = No
CC1=CCC(C(C)C)=CC1 = No
CC1=CC=C(C(C)C)CC1 = No

Field: next compound
query: Query (compound): CC(C)=CCC/C(C)=C/COC(=O)Cc1ccccc1 [Geranyl Phenyl Acetate] ; field requested: Added at 4%: cloudy at 20:1 dilution
result: Yes

---

Answer each item with its documented Lowest viscosity achieved (cSt).
experiment: Kinematic viscosity at 40 C of surfactant base formulation with added agent (Cannon viscometer)
Type: physicochemical
test settings: Table 1; base formulation 24% sodium undecyl sulfate, 6% lauramidopropyl betaine, 1.6% perfume; agent at 2%, 4%, 6%, 8%; 40° C.
Numbers only, in cSt.

C=C(C)[C@H]1CC=C(C)CC1 [Limonene] = 86

Below are 5 molecules. Give each one its Lowest viscosity achieved (cSt).
1. C=CC(C)(CCC=C(C)C)OC(=O)C(C)C (centres unmarked) [Linalyl Iso Butyrate]
2. CC(C)COC(=O)c1ccccc1O [Iso Butyl Salicylate]
3. CCCCCCCC(OC)OC
4. CC(C)CCOC(=O)c1ccccc1O [Isoamyl Salicylate]
5. CCCCCC(=O)OCC(C)C [Isobutyl Hexanoate]

result:
[38, 409, 308, 193, 109]

---

experiment: Visual cloudiness of surfactant formulation with added agent after 20:1 dilution with water
Format: physicochemical
Design: key: Samples that appeared cloudy (turbid) within less than a day were noted as cloudy (“Yes”); Samples that did not appear cloudy (turbid) within less than a day were noted as not cloudy (“No”)
test settings: agent at 6%; 0.5 g formula, 10 ml deionized water
readout label: Added at 6%: cloudy at 20:1 dilution

CCCCCC1(C)CCC(C)(C)C1=O (stereo not drawn) = Yes
CC(C)=CCC/C(C)=C/COC(=O)Cc1ccccc1 [Geranyl Phenyl Acetate] = Yes
CC12CCC(CC1)C(C)(C)O2 = No
C=CC(C)(CCC=C(C)C)OC(=O)C(C)C (stereo not drawn) [Linalyl Iso Butyrate] = Yes
CCCCCC(=O)OCC(C)C [Isobutyl Hexanoate] = No
CC1=CCC(C(C)C)=CC1 = Yes

Below are 3 compounds. Give each one its Added at 6%: cloudy at 20:1 dilution.
1. CC1=CC=C(C(C)C)CC1
2. C=C(C)[C@H]1CC=C(C)CC1
3. CCCCCCCCCCCCCC(=O)OC(C)C [Iso Propyl Myristate]

result:
Yes
Yes
Yes

---

experiment: Kinematic viscosity at 40 C of surfactant base formulation with added agent (Cannon viscometer)
Format: physicochemical
test settings: agent added at 8% to base formulation; 40 C
Where a name gives a salt, the structure may show the parent alone.
readout label: Kinematic viscosity at 40 C. [cSt], 8% oil
A complete answer gives the number followed by the unit.

Study these solved cases before continuing.
CCOC(=O)CC(O)(CC(=O)OCC)C(=O)OCC [Triethyl Citrate] = 40.5 cSt
CC1=CC=C(C(C)C)CC1 [alpha-Terpinene] = 46.7 cSt
CCCCCC(=O)OCC(C)C [Isobutyl Hexanoate] = 109.4 cSt
C=CC(C)(CCC=C(C)C)OC(=O)C(C)C (stereo not drawn) [Linalyl Iso Butyrate] = 39.9 cSt

Below are 5 compounds. Give each one its Kinematic viscosity at 40 C. [cSt], 8% oil.
1. C=C(C)[C@H]1CC=C(C)CC1 [Limonene]
2. CCO [Ethanol]
3. CC(CC=O)CCCC(C)(C)O (stereo not drawn) [Hydroxycitronellal]
4. CC(=O)CCc1ccc(O)cc1 [Raspberry Ketone]
5. CC(C)=CCC/C(C)=C/COC(=O)Cc1ccccc1 [Geranyl Phenyl Acetate]

result:
86.4 cSt
29.2 cSt
34.1 cSt
33.0 cSt
36.6 cSt
